- MEASURED ON: HMG-CoA reductase (Rattus norvegicus)
- Construct: solubilized enzyme preparations from liver microsomes of rats
- Sequence (P51639 whole entry): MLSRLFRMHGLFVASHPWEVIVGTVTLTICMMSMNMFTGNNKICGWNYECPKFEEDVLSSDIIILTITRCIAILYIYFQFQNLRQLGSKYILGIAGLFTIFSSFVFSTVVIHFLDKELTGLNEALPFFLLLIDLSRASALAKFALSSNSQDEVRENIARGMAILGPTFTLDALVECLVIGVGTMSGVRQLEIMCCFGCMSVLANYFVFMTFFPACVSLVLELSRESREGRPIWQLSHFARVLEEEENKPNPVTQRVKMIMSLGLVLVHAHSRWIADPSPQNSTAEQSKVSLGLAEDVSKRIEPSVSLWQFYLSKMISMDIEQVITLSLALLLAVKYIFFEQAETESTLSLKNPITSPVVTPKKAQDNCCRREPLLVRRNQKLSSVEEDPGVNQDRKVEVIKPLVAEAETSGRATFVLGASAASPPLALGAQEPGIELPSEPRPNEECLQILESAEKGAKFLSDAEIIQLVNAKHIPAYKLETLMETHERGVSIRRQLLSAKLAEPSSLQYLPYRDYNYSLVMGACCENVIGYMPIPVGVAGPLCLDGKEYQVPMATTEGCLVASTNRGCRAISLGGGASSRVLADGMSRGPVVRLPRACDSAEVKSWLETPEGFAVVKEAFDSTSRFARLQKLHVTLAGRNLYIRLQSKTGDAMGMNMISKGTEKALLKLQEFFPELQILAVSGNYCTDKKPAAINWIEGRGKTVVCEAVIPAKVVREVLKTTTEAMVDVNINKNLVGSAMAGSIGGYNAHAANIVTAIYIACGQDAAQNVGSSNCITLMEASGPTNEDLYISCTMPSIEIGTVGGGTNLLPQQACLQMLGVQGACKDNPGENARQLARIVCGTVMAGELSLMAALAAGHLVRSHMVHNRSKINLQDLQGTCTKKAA
- EXPERIMENTAL DETAILS: Inhibition of HMG-CoA reductase activity in solubilized enzyme preparations from rat liver microsomes
- EXPERIMENTAL SETUP: sodium salts of the dihydroxycarboxylic acids; mean of 3 parallel samples; read-out: IC50 (molar concentration necessary for a 50% inhibition)
pIC50: −log10 of the molar value.
ENDPOINT NAME: pIC50

// solved cases for pIC50 follow
SMILES STRUCTURE	pIC50
Cc1cc(-c2cc(Sc3ccc(F)cc3)cc(C(C)C)c2OC[C@@H](O)C[C@@H](O)CC(=O)O)ccc1F	8.40
CC(C)Sc1cc(-c2ccc(F)cc2)c(OC[C@@H](O)C[C@@H](O)CC(=O)O)c(C(C)C)c1	8.10
CC(C)c1c(O)c(C(C)C)c(C(C)C)c(OC[C@@H](O)C[C@@H](O)CC(=O)O)c1-c1ccc(F)cc1	8.70
CC(C)c1c(OC[C@@H](O)C[C@@H](O)CC(=O)O)c(C(C)C)c(C(C)C)c(O)c1-c1ccc(F)cc1	8.40
CC(C)c1cc(SC(C)(C)Sc2cc(-c3ccc(F)cc3)c(OC[C@@H](O)C[C@@H](O)CC(=O)O)c(C(C)C)c2)cc(-c2ccc(F)cc2)c1O	8.52

(1) CC(C)c1cc(SC(C)(C)Sc2cc(-c3ccc(F)cc3)c(OC[C@@H](O)C[C@@H](O)CC(=O)O)c(C(C)C)c2)cc(-c2ccc(F)cc2)c1OC[C@@H](O)C[C@@H](O)CC(=O)O
(2) CC(C)c1cc(Sc2ccccc2)cc(-c2ccc(F)cc2)c1OC[C@@H](O)C[C@@H](O)CC(=O)O
(3) O=C(O)C[C@H](O)C[C@H](O)COc1c(-c2ccc(F)cc2)cc(Sc2ccc(F)cc2)cc1C1CC1
Highest pIC50 first, then in falling order down to the smallest. Return the labels ranked in the requested order, please.
1, 3, 2

----------
- System: microsomal lipid peroxidation
- EXPERIMENTAL DETAILS: Inhibition of microsomal lipid peroxidation (in vitro)
- Format: biochemical
- EXPERIMENTAL SETUP: microsomes; read-out: IC50 (50% inhibition of lipid peroxidation)
pIC50: −log10 of the molar value.
ENDPOINT NAME: pIC50

// solved cases for pIC50 follow
> print(dat)
                           smiles.structure  measured
1  CC(C)c1c(O)c(C(C)C)c(C(C)C)c(O)c1-c1ccc(F)cc1      5.80
2  Oc1c(-c2ccc(F)cc2)cc(Sc2ccc(F)cc2)cc1C1CC1      5.82
3  CC(=O)Oc1c(-c2ccc(F)cc2)c(C(C)C)c(O)c(C(C)C)c1C(C)C      5.55

(A) CC(C)c1cc(SC(C)(C)Sc2cc(-c3ccc(F)cc3)c(OC[C@@H](O)C[C@@H](O)CC(=O)O)c(C(C)C)c2)cc(-c2ccc(F)cc2)c1O
(B) CC(C)c1cc(S)cc(-c2ccc(F)cc2)c1O
Recorded pIC50 values differ for A and B ; which one is higher? Let me know the label of the one you choose.
A

----------
- System: microsomal lipid peroxidation
- EXPERIMENTAL DETAILS: Inhibition of microsomal lipid peroxidation (in vitro)
- Assay type: biochemical
- EXPERIMENTAL SETUP: microsomes; read-out: IC50 (50% inhibition of lipid peroxidation)
pIC50: −log10 of the molar value.
ENDPOINT NAME: pIC50

> print(dat)
                                   compound  measured
1  CC(=O)Oc1c(C(C)C)c(-c2ccc(F)cc2)c(O)c(C(C)C)c1C(C)C [Process Example 25]      5.32
2  CC(C)c1cc(Sc2ccc(F)cc2)cc(-c2ccc(F)cc2)c1O [Process Example 6]      5.52
3  CC(C)c1cc(Sc2ccccc2)cc(-c2ccc(F)cc2)c1O [Process Example 7]      5.40
